# System: MCF7
# EXPERIMENTAL_DETAILS: Antiproliferative activity against human MCF7 cells after 72 hrs by MTT assay
# Type: functional, cell-based
# PARTICULARS: MCF7, 72 h
REPORTED_ENDPOINT: IC50 (µM)
Hi! Could you send only the number? It should be in µM, unit omitted.

Examples with answers:
>  <MOLECULE>
CCOc1ccc(-n2c(SCC(=O)N3CCOCC3)nnc2-c2cccc(C)c2)cc1

>  <UNIT_LABEL>
µM

>  <IC50>
93

$$$$
>  <MOLECULE>
COc1ccc(C)cc1NC(=O)c1cnn2c(C(F)F)cc(-c3ccc(C)cc3)nc12

>  <UNIT_LABEL>
µM

>  <IC50>
7

$$$$
>  <MOLECULE>
CCc1cccc(NC(=O)c2cnn3c(C(F)F)cc(-c4ccc(C)cc4)nc23)c1

>  <UNIT_LABEL>
µM

>  <IC50>
9.2

$$$$

Exercise: Entry CCCSc1nnc(N2C(=O)C(O)=C(C(=O)c3ccco3)C2c2ccccc2F)s1 (centres undefined) has what IC50?
Solution: 25.2
